System: 317291-083-R-J1-PDC complex spheroid growth;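 also: compound exposure lasted seven days after spheroids formed for three days; 100% = DMSO vehicle control wells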
Test: Anticancer human tumor 317291-083-R-J1-PDC patient-derived soft tissue sarcoma cell line growth inhibition [Asc]
Conditions: second compound 0.0316 µM; first compound 0.01 µM; hits give low values
value_type: viability, T/C (%)
The answer is to be given in %; state only the numeric part.

Worked cases, viability, T/C given:
# compound, viability, T/C (%)
records = [
    ("NC1CCC(NC2CC2c2ccccc2)CC1 (stereo not drawn) + Cc1c(S(C)(=O)=O)c(-c2cc(F)cc(N3CCN(c4ccc(NS(=O)(=O)c5ccc(NC(CCN6CCC(C(=O)OCCCP(=O)(O)O)CC6)CSc6ccccc6)c(S(=O)(=O)C(F)(F)F)c5)cc4)CC3)c2)c(-c2ccc(Cl)cc2)n1C(C)C", 99),
    ("CNC(C)C(=O)NC1CN(S(=O)(=O)c2cccc(S(=O)(=O)N3CCC4CCC(C(=O)NC(c5ccccc5)c5ccccc5)N4C(=O)C(NC(=O)C(C)NC)C3)c2)CCC2CCC(C(=O)NC(c3ccccc3)c3ccccc3)N2C1=O (stereo not drawn) + Cc1c(S(C)(=O)=O)c(-c2cc(F)cc(N3CCN(c4ccc(NS(=O)(=O)c5ccc(NC(CCN6CCC(C(=O)OCCCP(=O)(O)O)CC6)CSc6ccccc6)c(S(=O)(=O)C(F)(F)F)c5)cc4)CC3)c2)c(-c2ccc(Cl)cc2)n1C(C)C", 65.5),
]

Exercise: I have this compound here, O=C(c1ccc(F)c(F)c1Nc1ccc(I)cc1F)N1CC(O)([C@@H]2CCCCN2)C1 + CNC(C)C(=O)NC1CN(S(=O)(=O)c2cccc(S(=O)(=O)N3CCC4CCC(C(=O)NC(c5ccccc5)c5ccccc5)N4C(=O)C(NC(=O)C(C)NC)C3)c2)CCC2CCC(C(=O)NC(c3ccccc3)c3ccccc3)N2C1=O , and I need its recorded viability, T/C.
Solution: 72
